Test system: COMT
Protocol Text: COMT activity (methylation of adrenaline to metanephrine) in rat liver homogenates
Assay type: biochemical
Condition: rat liver homogenate; test compound 3 μM; means±SEM, n=4-8
Provide the reported COMT activity, Liver (% of control) of each item.

## Input What measured COMT activity, Liver (% of control) goes with O=C(CCN1CCCC2CCCCC21)c1ccc(O)c(O)c1[N+](=O)[O-] (stereo not shown) [Compound 34] ?
## Output 1.6 ± 0.2 % of control

## Input What measured COMT activity, Liver (% of control) goes with CCCN1CCN(CCC(=O)c2ccc(O)c(O)c2[N+](=O)[O-])CC1 [Compound 39] ?
## Output 0.8 ± 0.2 % of control

## Input What measured COMT activity, Liver (% of control) goes with O=C(CCN1CCCCC1)c1ccc(O)c(O)c1[N+](=O)[O-] [Compound 27] ?
## Output 2.4 ± 0.2 % of control

## Input What measured COMT activity, Liver (% of control) goes with CC(=O)Oc1cc2c(c([N+](=O)[O-])c1OC(C)=O)C(=O)C(C)(C)CC2 [Compound 25] ?
## Output 1.7 ± 0.1 % of control

## Input What measured COMT activity, Liver (% of control) goes with O=C1c2c(cc(O)c(O)c2[N+](=O)[O-])CC1CN1CCN(c2ccccc2)CC1 (stereo not shown) [Compound 44] ?
## Output 0.6 ± 0.2 % of control

## Input What measured COMT activity, Liver (% of control) goes with COc1cc(C=C2CCc3cc(O)c(O)c([N+](=O)[O-])c3C2=O)cc([N+](=O)[O-])c1O [Compound 11] ?
## Output 1.1 ± 0.3 % of control

## Input What measured COMT activity, Liver (% of control) goes with O=C(CCN1CCN(c2cccc(C(F)(F)F)c2)CC1)c1ccc(O)c(O)c1[N+](=O)[O-] [Compound 38] ?
## Output 11.2 ± 1.5 % of control

## Input What measured COMT activity, Liver (% of control) goes with O=C(CCN1CCCC1)c1ccc(O)c(O)c1[N+](=O)[O-] [Compound 28] ?
## Output 2.2 ± 0.2 % of control

## Input What measured COMT activity, Liver (% of control) goes with O=C(CCN1CCOCC1)c1ccc(O)c(O)c1[N+](=O)[O-] [Compound 26] ?
## Output 0.9 ± 0.1 % of control

## Input What measured COMT activity, Liver (% of control) goes with CCCC(=O)Oc1ccc(C(=O)c2ccccc2)c([N+](=O)[O-])c1OC(=O)CCC [Compound 20] ?
## Output 0.6 ± 0.0 % of control

## Input What measured COMT activity, Liver (% of control) goes with CCOC(=O)Oc1ccc(C(=O)CCc2ccccc2)c([N+](=O)[O-])c1OC(=O)OCC [Compound 22] ?
## Output 0.3 ± 0.1 % of control

## Input What measured COMT activity, Liver (% of control) goes with O=C(C=Cc1ccccc1)c1ccc(O)c(O)c1[N+](=O)[O-] [Compound 41] ?
## Output 1.1 ± 0.2 % of control

## Input What measured COMT activity, Liver (% of control) goes with CN(C)c1ccc(C=C2Cc3cc(O)c(O)c([N+](=O)[O-])c3C2=O)cc1 [Compound 8] ?
## Output 1.0 ± 0.1 % of control

## Input What measured COMT activity, Liver (% of control) goes with COc1ccc(N2CCN(CCC(=O)c3ccc(O)c(O)c3[N+](=O)[O-])CC2)cc1 [Compound 37] ?
## Output 1.7 ± 0.3 % of control

## Input What measured COMT activity, Liver (% of control) goes with CCOC(=O)Oc1ccc(C(=O)Cc2ccccc2)c([N+](=O)[O-])c1OC(=O)OCC [Compound 48] ?
## Output 0.5 ± 0.1 % of control

## Input What measured COMT activity, Liver (% of control) goes with O=C1c2c(cc(O)c(O)c2[N+](=O)[O-])CC1CN1CCCCC1 (stereo not shown) [Compound 30] ?
## Output 1.4 ± 0.1 % of control

Each recorded value in this set is attributed to patent US20020037931A1.
